Test system: JVM2 (cancer type: Mantle)
testDescription: normalized area under the dose-response curve (viability relative to DMSO control) (fraction); higher = less sensitive (more viable cells)
conditionLabel: exposure time not given
readoutKind: normalized area under the dose-response curve
Quick one: just the number, no unit, thanks!

Examples with their reported normalized area under the dose-response curve follow.
1. CN(C)C/C=C/C(=O)Nc1cc2c(Nc3ccc(F)c(Cl)c3)ncnc2cc1O[C@H]1CCOC1 [Afatinib] :: 0.497
2. COc1cc(Nc2c(C#N)cnc3cc(OCCCN4CCN(C)CC4)c(OC)cc23)c(Cl)cc1Cl [Bosutinib] :: 0.534
3. Nc1cccc2c1CN(C1CCC(=O)NC1=O)C2=O (stereo not given) [Lenalidomide] :: 0.657

Report normalized area under the dose-response curve under test system JVM2 (cancer type: Mantle) for CNC(=O)c1cc(Oc2ccc(NC(=O)Nc3ccc(Cl)c(C(F)(F)F)c3)cc2)ccn1 [Sorafenib] .
0.747

Report normalized area under the dose-response curve under test system JVM2 (cancer type: Mantle) for Nc1nc(F)nc2c1ncn2[C@@H]1O[C@H](COP(=O)(O)O)[C@@H](O)[C@@H]1O [Fludarabine phosphate] .
0.855

====

Test system: SU-DHL1 (cancer type: TCL)
testDescription: normalized area under the dose-response curve (viability relative to DMSO control) (fraction); higher = less sensitive (more viable cells)
conditionLabel: exposure time not given
Counter-ions that a name gives are not always drawn.
readoutKind: normalized area under the dose-response curve
Quick one: just the number, no unit, thanks!

Examples with their reported normalized area under the dose-response curve follow.
1. Cn1c(CCCC(=O)O)nc2cc(N(CCCl)CCCl)ccc21 [Bendamustine hydrochloride] :: 0.794
2. CC[C@H](Nc1ncnc2[nH]cnc12)c1nc2cccc(F)c2c(=O)n1-c1ccccc1 :: 0.782
3. Cc1noc2c1-c1ccccc1C(c1ccc(Cl)cc1)=N[C@H]2CC(N)=O :: 0.794
4. CNC(=O)c1cc(Oc2ccc(NC(=O)Nc3ccc(Cl)c(C(F)(F)F)c3)c(F)c2)ccn1 :: 0.57
5. Nc1ncn([C@@H]2O[C@H](CO)[C@@H](O)[C@H]2O)c(=O)n1 :: 0.453
6. CC(=O)Nc1cccc(-n2c(=O)n(C3CC3)c(=O)c3c(Nc4ccc(I)cc4F)n(C)c(=O)c(C)c32)c1 :: 0.501
7. CCN(CC)CCNC(=O)c1c(C)[nH]c(/C=C2\C(=O)Nc3ccc(F)cc32)c1C :: 0.541
8. Nc1nc(F)nc2c1ncn2[C@@H]1O[C@H](COP(=O)(O)O)[C@@H](O)[C@@H]1O [Fludarabine phosphate] :: 0.888

Report normalized area under the dose-response curve under test system SU-DHL1 (cancer type: TCL) for CC(=O)O[C@H]1C(=O)[C@@]2(C)[C@H]([C@H](OC(=O)c3ccccc3)[C@]3(O)C[C@H](OC(=O)[C@H](O)[C@@H](NC(=O)c4ccccc4)c4ccccc4)C(C)=C1C3(C)C)[C@]1(OC(C)=O)CO[C@@H]1C[C@@H]2O .
0.611

====

Tested on: OCI-LY3 (cancer type: DLBCL)
testDescription: normalized area under the dose-response curve (viability relative to DMSO control) (fraction); higher = less sensitive (more viable cells)
conditionLabel: exposure time not given
Structures can show the parent of a compound that is named as a salt.
readoutKind: normalized area under the dose-response curve

Examples with their reported normalized area under the dose-response curve follow.
1. Cc1cccc(/C=N/Nc2cc(N3CCOCC3)n3nc(-c4ccncc4)cc3n2)c1 [apy0201] :: 0.863
2. C/C=C1\NC(=O)[C@H]2CSSCC/C=C/[C@H](CC(=O)N[C@H](C(C)C)C(=O)N2)OC(=O)[C@H](C(C)C)NC1=O [Romidepsin] :: 0.203
3. Nc1cc(C(F)(F)F)c(-c2cc(N3CCOCC3)nc(N3CCOCC3)n2)cn1 [Buparlisib] :: 0.571

// switching to the query compound
Quote normalized area under the dose-response curve reported for C#Cc1cccc(Nc2ncnc3cc(OCCOC)c(OCCOC)cc23)c1 [Erlotinib hydrochloride] please.
0.897

====

The reader will find reported normalized area under the dose-response curve values listed item by item below.
Test system: Mino (cancer type: Mantle)
testDescription: normalized area under the dose-response curve (viability relative to DMSO control) (fraction); higher = less sensitive (more viable cells)
conditionLabel: exposure time not given
Structures can show the parent of a compound that is named as a salt.
Quick one: just the number, no unit, thanks!

1. Nc1ncn([C@@H]2O[C@H](CO)[C@@H](O)[C@H]2O)c(=O)n1 :: 0.807
2. Cn1ncc(Cl)c1-c1cc(C(=O)N[C@H](CN)Cc2cccc(F)c2)sc1Cl :: 0.813

// switching to the query compound
Quote normalized area under the dose-response curve reported for N[C@@H](Cc1ccc(N(CCCl)CCCl)cc1)C(=O)O [Melphalan hydrochloride] please.
0.818

====

Tested on: OCI-MY5/CRBN (cancer type: MM)
testDescription: normalized area under the dose-response curve (viability relative to DMSO control) (fraction); higher = less sensitive (more viable cells)
conditionLabel: exposure time not given
readoutKind: normalized area under the dose-response curve
Quick one: just the number, no unit, thanks!

1. O=C1CC[C@H](N2Cc3c(OCc4ccc(CN5CCOCC5)cc4)cccc3C2=O)C(=O)N1 [Iberdomide] :: 0.913
2. O=C(CCCCCCC(=O)Nc1ccccc1)NO [Vorinostat] :: 0.517

// switching to the query compound
Quote normalized area under the dose-response curve reported for CN(C)C/C=C/C(=O)Nc1cc2c(Nc3ccc(F)c(Cl)c3)ncnc2cc1O[C@H]1CCOC1 [Afatinib] please.
0.548

====

Test system: SU-DHL6 (cancer type: DLBCL)
testDescription: normalized area under the dose-response curve (viability relative to DMSO control) (fraction); higher = less sensitive (more viable cells)
conditionLabel: exposure time not given
Structures can show the parent of a compound that is named as a salt.
The reader will find reported normalized area under the dose-response curve values listed item by item below.

Examples with their reported normalized area under the dose-response curve follow.
1) Cc1ccc(C(=O)Nc2ccc(CN3CCN(C)CC3)c(C(F)(F)F)c2)cc1C#Cc1cnc2cccnn12 :: 0.79
2) CC(C)(C)c1nc(-c2cccc(NS(=O)(=O)c3c(F)cccc3F)c2F)c(-c2ccnc(N)n2)s1 [Dabrafenib mesylate] :: 0.882

Quote normalized area under the dose-response curve reported for CC(=O)O[C@H]1C(=O)[C@@]2(C)[C@H]([C@H](OC(=O)c3ccccc3)[C@]3(O)C[C@H](OC(=O)[C@H](O)[C@@H](NC(=O)c4ccccc4)c4ccccc4)C(C)=C1C3(C)C)[C@]1(OC(C)=O)CO[C@@H]1C[C@@H]2O please.
0.793

Quote normalized area under the dose-response curve reported for CC(C)(O)CNc1nc(Nc2ccnc(C(F)(F)F)c2)nc(-c2cccc(C(F)(F)F)n2)n1 please.
0.92

Quote normalized area under the dose-response curve reported for Cc1cn(-c2cc(NC(=O)c3ccc(C)c(Nc4nccc(-c5cccnc5)n4)c3)cc(C(F)(F)F)c2)cn1 please.
0.918

====

The reader will find reported normalized area under the dose-response curve values listed item by item below.
System: KMS34 (cancer type: MM)
testDescription: normalized area under the dose-response curve (viability relative to DMSO control) (fraction); higher = less sensitive (more viable cells)
conditionLabel: exposure time not given
Where a name gives a salt, the structure may show the parent alone.

1) Cc1ccc(Nc2nccc(N(C)c3ccc4c(C)n(C)nc4c3)n2)cc1S(N)(=O)=O [Pazopanib hydrochloride] :: 0.347
2) CCCS(=O)(=O)Nc1ccc(F)c(C(=O)c2c[nH]c3ncc(-c4ccc(Cl)cc4)cc23)c1F [Vemurafenib] :: 0.765
3) CNC(=O)c1cc(Oc2ccc(NC(=O)Nc3ccc(Cl)c(C(F)(F)F)c3)c(F)c2)ccn1 [Regorafenib] :: 0.35
4) Nc1ncn([C@@H]2O[C@H](CO)[C@@H](O)[C@H]2O)c(=O)n1 [Azacitidine] :: 0.64
5) Cc1sc2c(c1C)C(c1ccc(Cl)cc1)=N[C@@H](CC(=O)Nc1ccc(O)cc1)c1nnc(C)n1-2 [otx-015] :: 0.514
6) C[C@@H](Oc1cc(-c2cnn(C3CCNCC3)c2)cnc1N)c1c(Cl)ccc(F)c1Cl [Crizotinib] :: 0.306
7) Cc1nc(Nc2ncc(C(=O)Nc3c(C)cccc3Cl)s2)cc(N2CCN(CCO)CC2)n1 [Dasatinib] :: 0.612
8) C=CC(=O)N1CCC[C@@H](n2nc(-c3ccc(Oc4ccccc4)cc3)c3c(N)ncnc32)C1 [Ibrutinib] :: 0.518
9) Nc1cccc2c1C(=O)N(C1CCC(=O)NC1=O)C2=O (centres undefined) [Pomalidomide] :: 0.917
10) Nc1ncn([C@H]2C[C@H](O)[C@@H](CO)O2)c(=O)n1 [Decitabine] :: 0.702

Report normalized area under the dose-response curve under test system KMS34 (cancer type: MM) for CCN(CC)CCNC(=O)c1c(C)[nH]c(/C=C2\C(=O)Nc3ccc(F)cc32)c1C [Sunitinib] .
0.459

Report normalized area under the dose-response curve under test system KMS34 (cancer type: MM) for CC(C)C[C@H](NC(=O)CNC(=O)c1cc(Cl)ccc1Cl)B(O)O [Ixazomib] .
0.306

Report normalized area under the dose-response curve under test system KMS34 (cancer type: MM) for COc1cc(Nc2c(C#N)cnc3cc(OCCCN4CCN(C)CC4)c(OC)cc23)c(Cl)cc1Cl [Bosutinib] .
0.447

Report normalized area under the dose-response curve under test system KMS34 (cancer type: MM) for COc1cc2nccc(Oc3ccc(NC(=O)NC4CC4)c(Cl)c3)c2cc1C(N)=O [Lenvatinib] .
0.912
